The measurements presented in this section are drawn from patent US20240262910A1.

Examples of binders with documented EC50 follow.
- measurement.target: T1, human CD33, full length, on cells (human, UniProt P20138 18-364)
- T1 construct: NIH-3T3 cells stably overexpressing full-length human CD33, or AML lines U937 and Set2 with endogenous CD33; the cell line is named under assay; also called 3T3-huCD33; 3T3-CD33
- T1 sequence (P20138 18-364): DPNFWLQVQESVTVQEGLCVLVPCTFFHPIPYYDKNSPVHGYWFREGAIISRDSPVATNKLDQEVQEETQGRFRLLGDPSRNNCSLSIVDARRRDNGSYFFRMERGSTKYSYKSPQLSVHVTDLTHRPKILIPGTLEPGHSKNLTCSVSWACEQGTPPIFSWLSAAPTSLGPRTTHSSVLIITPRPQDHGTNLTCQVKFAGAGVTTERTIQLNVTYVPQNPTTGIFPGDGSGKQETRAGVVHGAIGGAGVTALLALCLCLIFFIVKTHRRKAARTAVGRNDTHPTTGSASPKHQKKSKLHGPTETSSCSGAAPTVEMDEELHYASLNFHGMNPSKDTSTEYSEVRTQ
- measurement.description: flow cytometry, purified mAb, U937 cells
Numbers only; they are read as nM.

Lab book: EC50 of 1-H19 (antibody, V domains shown, AlivaMab mouse hybridoma antibody; also called 1-H19-A) VH: QVQLQESGPGLVKPSETLSLTCTVSGGSISTYYWSWIRQPAGKGLEWIGRIYTSGNTNYNPSLKSRVTMSVDTSKNQLSLKLRSVTAADTAVYYCARDGDNRNSDAFDIWGQGTMVTVSS VL: QSVLTQPPSVSGAPGQRVTISCTGSSSNIGAGYDVHWYQQLPGTAPKLLIYGNSNRPSGVPDRFSGSKSGTSASLAITGLQAEDEADYYCQSYDRSLSGWVFGGGTKLTVL noted as 0.866

Lab book: EC50 of 1-A20 (antibody, V domains shown, AlivaMab mouse hybridoma antibody; also called 1-A20-A) VH: QVQLQESGPGLVKPSETLSLTCTVSGDSISSYYWSWIRQPAGKGLEWIGRIYTSGNTNYNPSLKSRVTMSVDKSKNQFSLKLRSVTAADTAVYYCARDGDNRDSDAFDIWGQGTMVTVSS VL: SPGTLSLSPGERATLSCRASQNISSSYLAWCQQKPGQAPRLFIYGTSRRATGIPDRFSGSGSGTDFTLTISRLEPEDFAVYYCQQYGSSPLTFGGGTKVEIK noted as 0.6

Lab book: EC50 of 3-P14 (hybridoma antibody) (antibody, V domains shown, AlivaMab mouse hybridoma antibody; also called 3-P14-A) VH: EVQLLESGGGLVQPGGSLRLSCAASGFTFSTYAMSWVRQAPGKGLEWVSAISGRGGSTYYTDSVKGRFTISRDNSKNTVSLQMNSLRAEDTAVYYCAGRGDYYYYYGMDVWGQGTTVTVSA VL: DIVMTQSPLSSPVTLGQPASFSCRSSQSLVYSDGNTYLSWLQQRPGQPPRLLIYKISNRFSGVPDRFSGSGAGTDFTLKISRVEAEDVGVYYCMQSTQFPHTFGQGTKLEIK noted as 3.27
